Recorded measurements of log10(IC50), one per entry
- method.summary: Antagonist activity at quorum sensing system in Escherichia coli NM522 carrying Vibrio fischeri luxR and luxICDBE promoter region assessed as inhibition of 3-oxo-C6HSL induced bioluminescence production after 4 to 5 hrs by luminometer
Answers are given as log10 of IC50 in µM.

Known results for compounds:
[[record]]
compound = "CCCCCCC1=C/C(=C/Br)OC1=O"
observed_property = "log10(IC50)"
val = 0.48

[[record]]
compound = "CCCCC1=C/C(=C/Br)OC1=O"
observed_property = "log10(IC50)"
val = -0.22

[[record]]
compound = "CCCC(O)C1=C/C(=C/Br)OC1=O (centres undefined)"
observed_property = "log10(IC50)"
val = 1.15

[[record]]
compound = "C=C1C=C(C(O)CCC)C(=O)O1 (centres undefined)"
observed_property = "log10(IC50)"
val = 1.72


Problem: Report log10(IC50) for C=C1C=C(C(O)CCCCCCC)C(=O)O1 (centres undefined) please.
Solution: 1.18

Problem: Cool, now CCCCCC(O)C1=C/C(=C/Br)OC1=O (centres undefined)
Solution: 0.78

Problem: Cool, now CCCCCCCC(O)C1=C/C(=C/Br)OC1=O (centres undefined)
Solution: 1.40
